biological target: human pancreas Glucokinase (GK) (Homo sapiens, UniProt P35557); construct: His6; experiment: Glucokinase enzyme assay, pancreas GK; details: concentration that produces 50% activation above vehicle control
Sequence (P35557 whole entry): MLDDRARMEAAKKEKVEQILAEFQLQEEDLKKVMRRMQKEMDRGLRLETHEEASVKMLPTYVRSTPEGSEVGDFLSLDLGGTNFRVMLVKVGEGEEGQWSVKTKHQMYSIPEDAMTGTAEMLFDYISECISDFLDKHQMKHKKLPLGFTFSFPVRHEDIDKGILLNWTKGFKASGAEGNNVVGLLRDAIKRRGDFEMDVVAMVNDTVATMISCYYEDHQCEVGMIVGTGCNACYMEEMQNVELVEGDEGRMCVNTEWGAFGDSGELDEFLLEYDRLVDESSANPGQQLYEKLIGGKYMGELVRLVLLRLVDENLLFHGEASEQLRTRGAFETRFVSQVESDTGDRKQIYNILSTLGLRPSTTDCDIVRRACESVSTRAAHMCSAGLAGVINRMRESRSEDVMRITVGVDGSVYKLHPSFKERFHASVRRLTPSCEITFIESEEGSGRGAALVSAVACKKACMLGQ
pEC50: −log10 of the molar value.
PROPERTY LABEL: pEC50

O=C(CCC1c2c(Cl)ccc(Cl)c2C(=O)N1Cc1ccc(F)cc1)Nc1ccccn1 (centres unmarked) : 6.36
O=C(CCC1c2ccccc2C(=O)N1Cc1ccc(F)cc1)Nc1ccc(C(=O)O)cn1 (centres unmarked) : 5.41
CCOC(=O)c1csc(NC(=O)CCC2c3c(F)ccc(F)c3C(=O)N2Cc2ccc(F)cc2)n1 (centres unmarked) : 5.51

(P) COC(=O)c1ccc(NC(=O)CCC2c3c(F)cccc3C(=O)N2Cc2ccc(F)cc2)nc1 (centres unmarked)
(Q) O=C(CCC1c2c(F)cccc2C(=O)N1Cc1ccc(F)cc1)Nc1ccc(-c2ccccc2)cn1 (centres unmarked)
**Q:** Hi, I'm comparing P with Q and wondering which one has the bigger number for pEC50. Any idea? Mark your answer with the label of the selected entry.
**A:** P
(P: 7.60, Q: 5.72)

----------
molecular target: human pancreas Glucokinase (GK) (Homo sapiens, UniProt P35557); construct: His6; made in house; host or cells: Escherichia coli; assay: Glucokinase enzyme assay, pancreas GK; format: biochemical; conditions: increase in GK activity above vehicle control, compound 50 μM, 12 mM glucose
PROPERTY LABEL: activation at 50 µM (%)

Some compounds with recorded activation at 50 µM:
O=C(CCC1c2c(Cl)ccc(Cl)c2C(=O)N1Cc1ccc(F)cc1)Nc1ccccn1 (stereo not drawn) : 206
COC(=O)c1ccc(NC(=O)CCC2c3ccccc3C(=O)N2Cc2ccc(OC)cc2)nc1 (stereo not drawn) : 172
COc1ccc(CN2C(=O)c3ccccc3C2COC(=O)Nc2ccccn2)cc1 (stereo not drawn) : 115

(P) O=C(CCC1c2c(F)cccc2C(=O)N1Cc1ccc(F)cc1)Nc1ncc(Br)s1 (stereo not drawn)
(Q) O=C(CCC1c2c(Cl)cccc2C(=O)N1Cc1ccc(F)cc1)Nc1ccccn1 (stereo not drawn)
**Q:** Recorded activation at 50 µM values differ for P and Q ; which one is higher? I would appreciate it if you answered with the label of your choice.
**A:** Q
(Q: 342%, P: 65%)

(a) COCOCc1ccc(NC(=O)CCC2c3c(F)cccc3C(=O)N2Cc2ccc(F)cc2)nc1 (stereo not drawn)
(b) O=C(CCC1c2c(F)ccc(F)c2C(=O)N1Cc1ccc(F)cc1)Nc1nc(C(=O)O)cs1 (stereo not drawn)
**Q:** // compare measured activation at 50 µM between a and b ; output the lower one Field: selected label. Fill in the label of the entry you choose.
**A:** b

(I) COc1ccc(CN2C(=O)c3ccccc3C2CNC(=O)Nc2ccccn2)cc1 (stereo not drawn)
(II) O=C(CCC1c2ccccc2C(=O)N1Cc1ccccc1)Nc1ccc(C(=O)O)cn1 (stereo not drawn)
**Q:** Larger number for activation at 50 µM: I , or II ? Identify your pick by its label.
**A:** II
(II: 306%, I: 4.39%)

----------
target: human pancreas Glucokinase (GK) (Homo sapiens, UniProt P35557); construct: His6; made in house; host or cells: Escherichia coli; test: Glucokinase enzyme assay, pancreas GK; format: biochemical; settings: increase in GK activity above vehicle control, compound 50 μM, 12 mM glucose
PROPERTY LABEL: activation at 50 µM (%)

Some solved entries appear below for comparison.
O=C(CCC1c2c(F)cccc2C(=O)N1Cc1ccc(F)cc1)Nc1cc2ccccc2cn1 (stereo not shown) [Compound 29] : 212
O=C(CCC1c2c(F)cccc2C(=O)N1Cc1ccc(F)cc1)Nc1ccc(-c2ccccc2)cn1 (stereo not shown) [Compound 31] : 64.1

(I) O=C(CCC1c2c(F)cccc2C(=O)N1Cc1ccc(F)cc1)Nc1ccc2ccccc2n1 (stereo not shown) [Compound 28]
(II) COC(=O)c1ccc(NC(=O)CCC2c3c(F)cccc3C(=O)N2Cc2ccc(F)cc2)nc1 (stereo not shown) [Compound 26]
**Q:** # compare activation at 50 µM for I vs II ; return the one with the smaller value Write the label of whichever entry you select.
**A:** I
